Consider the following compounds and their measured AC50 readings.
# System: S. cerevisiae expressing PfHSP40, growth rescue, plate reader
# test: Yeast growth rescue from Plasmodium falciparum HSP40 toxicity, dose response confirmatory, plate reader (AID 540271);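 note: yeast growth read after three days of incubation at 30 °C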

Here is how some compounds turned out for AC50.
CC[C@@H](C(=O)[C@@H](C)[C@@H](O)[C@H](C)[C@@H]1O[C@@H]([C@@H](CC)C(=O)O)CC[C@@H]1C)[C@H]1O[C@]2(C=C[C@@H](O)[C@]3(CC[C@@](C)([C@H]4CC[C@](O)(CC)[C@H](C)O4)O3)O2)[C@H](C)C[C@@H]1C
3 µM
O=C1OCC(CO)(CO)N=C1NNc1ccc(Cl)c(Cl)c1
1.87 µM
COc1ccc2c(c1)S/C(=C\C(=O)c1ccncc1)N2C
5.21 µM

**Query** Check the records and state AC50 for CC(C)(C)C(O)C(Cc1ccccc1Cl)n1cncn1 (centres undefined)
**Result** 0.215 µM

FYI, the data here is from PubChem BioAssay AID540271.
